Quick list: koff per entry.
- systemTested: HCV Core 134-171-TT peptide (ALRZ-9 peptide) (HCV-1)
- protocolNotes: SPR, captured mAb;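 note: Anti-HCV Core mAbs from hybridoma supernatants held on a rabbit anti-mouse IgG CM5 surface, peptide flowed over 3 min then 4 min dissociation, duplicate concentrations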
reportedProperty: koff (s⁻¹)

[[record]]
binder = "HCV 208A-159 (antibody, V domains shown) VH: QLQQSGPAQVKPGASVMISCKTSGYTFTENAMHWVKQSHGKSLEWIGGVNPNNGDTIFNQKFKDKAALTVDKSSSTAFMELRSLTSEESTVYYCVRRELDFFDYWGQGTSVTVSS VL: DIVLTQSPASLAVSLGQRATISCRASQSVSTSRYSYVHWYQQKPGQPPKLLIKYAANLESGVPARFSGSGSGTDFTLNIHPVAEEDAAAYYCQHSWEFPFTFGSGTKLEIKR"
reportedresult = 0.00065

[[record]]
binder = "HCV 208B-1024 (antibody, V domains shown) VH: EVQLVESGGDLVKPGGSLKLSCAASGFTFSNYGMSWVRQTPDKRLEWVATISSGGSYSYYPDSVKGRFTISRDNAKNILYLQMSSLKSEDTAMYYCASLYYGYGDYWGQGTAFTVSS VL: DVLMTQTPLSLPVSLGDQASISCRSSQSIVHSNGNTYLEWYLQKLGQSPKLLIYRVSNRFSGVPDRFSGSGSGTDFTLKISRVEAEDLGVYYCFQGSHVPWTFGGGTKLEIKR"
reportedresult = 0.014

